Reference source: ChEMBL document CHEMBL1134361

This section presents compounds with their documented Delta Fmax values.
- protocol_text: Direct binding to PgP recombinant cytosolic domain was measured by percent maximal quenching of the intrinsic fluorescence.
- Format: ADME
- assay_conditions: cytosol
assay_metric: Delta Fmax (%)

1. CC(C)=CCc1c(O)cc2oc(-c3ccccc3)cc(=O)c2c1O | 83.4
2. O=c1cc(-c2ccccc2)oc2cc(OCc3ccccc3)cc(O)c12 | 29.3
3. CC(C)=CCC/C(C)=C\Cc1c(O)cc(O)c2c(=O)cc(-c3ccccc3)oc12 | 67
4. CC(C)=CCC/C(C)=C\Cc1c(O)cc2oc(-c3ccccc3)cc(=O)c2c1O | 48.2
5. CC(C)=CCc1c(O)cc(O)c2c(=O)cc(-c3ccccc3)oc12 | 81
6. O=c1cc(-c2ccccc2)oc2c(Cc3ccccc3)c(O)cc(O)c12 | 99.1
7. COc1cc(O)c2c(=O)cc(-c3ccccc3)oc2c1 | 68.1
8. O=c1cc(-c2ccccc2)oc2c(Cc3ccccc3)c(O)c(Cc3ccccc3)c(O)c12 | 40.9
9. CC(C)Oc1c(C(C)C)c(O)c2c(=O)cc(-c3ccccc3)oc2c1C(C)C | 38.4
10. O=c1cc(-c2ccccc2)oc2cc(O)c(Cc3ccccc3)c(O)c12 | 72.4
11. COc1cc2oc(-c3ccccc3)cc(=O)c2c(O)c1C | 57.3
12. Cc1c(O)cc2oc(-c3ccccc3)cc(=O)c2c1O | 46.6
13. CC(C)Oc1cc2oc(-c3ccccc3)cc(=O)c2c(O)c1C(C)C | 44.5
14. CC(C)c1c(O)cc2oc(-c3ccccc3)cc(=O)c2c1O | 39
15. CC(C)Oc1cc(O)c2c(=O)cc(-c3ccccc3)oc2c1 | 53.2
16. O=c1cc(-c2ccccc2)oc2cc(O)cc(O)c12 | 94.6
17. CC(C)=CCc1c(O)c(CC=C(C)C)c2oc(-c3ccccc3)cc(=O)c2c1O | 21.5
